- Tested on: UGT enzymes of human liver microsomes
- Method summary: Inhibition of raloxifene glucuronidation (G1, G2) in human liver microsomes
- Type: biochemical
- Condition details: G1; inhibitor 50 μM; raloxifene 50 μM, human liver microsomes 250 μg/ml, 15 min
Measured parameter: % of control metabolism (SD, n = 3), raloxifene glucuronide G1

Molecule	Reported result
CCCCCCCCOC(=O)c1cc(O)c(O)c(O)c1 [Octyl gallate]	37 (2) %
O=C(O[C@@H]1Cc2c(O)cc(O)cc2O[C@@H]1c1ccc(O)c(O)c1)c1cc(O)c(O)c(O)c1 [Epicatechin gallate]	37 (3) %
O=C(O[C@@H]1Cc2c(O)cc(O)cc2O[C@H]1c1cc(O)c(O)c(O)c1)c1cc(O)c(O)c(O)c1 [Gallocatechin gallate]	45 (2) %
O=C1C[C@@H](c2ccc(O)cc2)Oc2cc(O)cc(O)c21	54 (4) %
O=C(O)c1cc(-c2ccc(F)cc2F)ccc1O [Diflunisal, reference compound]	43 (1) %
C#C[C@]1(O)CC[C@H]2[C@@H]3CCc4cc(O)ccc4[C@H]3CC[C@@]21C [17-α-Ethinylestradiol, 17-α-ethinylestradiol, reference compound]	42 (2) %
CCCOC(=O)c1cc(O)c(O)c(O)c1 [Propyl gallate]	45 (6) %
